- Test system: MFM-223
- method_description: normalised response (% of control), CellTiter-Glo; higher = more viable cells (100 = DMSO, 0 = benzethonium chloride kill control)
- condition_set: incubation time: 72 h
quantity: normalised response (%)

INSERT INTO measurements (molecule, units, reading) VALUES
  ('CO[C@H](C(=O)[C@@H](O)[C@@H](C)O)[C@@H]1Cc2cc3cc(O[C@H]4C[C@@H](O[C@@H]5C[C@@H](O)[C@H](O)[C@@H](C)O5)[C@H](O)[C@@H](C)O4)c(C)c(O)c3c(O)c2C(=O)[C@H]1O[C@H]1C[C@@H](O[C@@H]2C[C@@H](O)[C@@H](O[C@@H]3C[C@](C)(O)[C@H](O)[C@@H](C)O3)[C@@H](C)O2)[C@H](O)[C@@H](C)O1 [Plicamycin] (100 nM)', '%', 103),
  ('CC[C@H](CC#N)OC(=O)N[C@@H](C)c1cccc(NC(=O)Nc2ccc(-c3cnco3)c(OC)c2)c1 [AVN944] (100 nM)', '%', 98.2),
  ('CN1CCN(c2nc(C3=C(c4c[nH]c5ccccc45)C(=O)NC3=O)c3ccccc3n2)CC1 [Sotrastaurin] (100 nM)', '%', 92.1),
  ('COc1cc(Nc2ncc(F)c(Nc3ccc4c(n3)N(COP(=O)(O)O)C(=O)C(C)(C)O4)n2)cc(OC)c1OC [Fostamatinib] (25 nM)', '%', 91.2),
  ('CC(C)(C)Cn1c(N)nc2ccc(-c3[nH]c(C(C)(C)C)nc3-c3ccc(F)cc3)nc21 (100 nM)', '%', 104),
  ('NC(=O)c1cccc2cn(-c3ccc([C@@H]4CCCNC4)cc3)nc12 [MK-4827] (100 nM)', '%', 107);

Origin of the recorded values: the supplement of paper PMC4862054
